# TEST TARGET: Yer064c (UniProt P40041)
# Sequence: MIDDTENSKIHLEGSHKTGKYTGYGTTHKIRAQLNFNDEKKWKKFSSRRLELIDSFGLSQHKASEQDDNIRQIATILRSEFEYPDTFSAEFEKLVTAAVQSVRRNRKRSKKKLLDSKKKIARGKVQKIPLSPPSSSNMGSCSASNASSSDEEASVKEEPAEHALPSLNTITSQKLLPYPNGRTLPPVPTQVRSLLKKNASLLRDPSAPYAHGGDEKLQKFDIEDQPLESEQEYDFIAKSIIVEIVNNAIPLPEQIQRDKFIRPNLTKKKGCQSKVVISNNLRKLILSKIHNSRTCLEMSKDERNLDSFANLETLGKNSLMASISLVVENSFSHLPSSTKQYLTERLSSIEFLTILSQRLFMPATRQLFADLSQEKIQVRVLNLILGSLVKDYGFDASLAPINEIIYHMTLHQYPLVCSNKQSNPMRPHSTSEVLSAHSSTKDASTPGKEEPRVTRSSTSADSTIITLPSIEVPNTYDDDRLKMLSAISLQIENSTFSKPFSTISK
# PROTOCOL DESCRIPTION: PBM E-score (8-mer binding enrichment) (E-score (-0.5 to 0.5)); higher = stronger / more preferred TF binding
# MEASUREMENT CONTEXT: protein concentration: 200 nM; construct: GST-full length
In all, about 33,000 sequences were measured (“E-score (-0.5 to 0.5)”: median about -0.036, highest 2% from about 0.37 on). The sample holds the highest values, similar sequences and a random draw of the others, so the mix is not that of the screen.
PROPERTY: PBM E-score
Answers are plain numbers.

| PRIMARY SEQUENCE | MEASURED RESULT |
| --- | --- |
| CAACACAG | 0.0802 |
| GAAGACTA | 0.444 |

Respectfully, I request PBM E-score for each entry included below.
1. CCTGTGCA
2. CAGAAGTC
3. TAAGACCA
4. CTCATGAA
5. CTCATGAC
6. GTGGCATA
7. CAAGACTA
8. TTTAGAAA

1. -0.146
2. 0.293
3. 0.112
4. 0.202
5. 0.381
6. -0.194
7. 0.329
8. 0.0151

Value sought for every listed sequence: PBM E-score.
1. CGAGAACA
2. ATCATGAC
3. GCTCATAC
4. AAAGACTC
5. ATCATGAA
6. GCTCATAA

1. 0.0131
2. 0.369
3. -0.0113
4. 0.409
5. 0.266
6. 0.136

Batch request: PBM E-score per item, same order as input.
1. ACCCATAT
2. ATGTAGTG
3. CAGGAGTA
4. GTAGAAAC
5. ATGTAGTC

1: 0.216; 2: 0.0118; 3: 0.0894; 4: -0.119; 5: 0.382

----------
# TEST TARGET: Yer064c (UniProt P40041)
# Sequence: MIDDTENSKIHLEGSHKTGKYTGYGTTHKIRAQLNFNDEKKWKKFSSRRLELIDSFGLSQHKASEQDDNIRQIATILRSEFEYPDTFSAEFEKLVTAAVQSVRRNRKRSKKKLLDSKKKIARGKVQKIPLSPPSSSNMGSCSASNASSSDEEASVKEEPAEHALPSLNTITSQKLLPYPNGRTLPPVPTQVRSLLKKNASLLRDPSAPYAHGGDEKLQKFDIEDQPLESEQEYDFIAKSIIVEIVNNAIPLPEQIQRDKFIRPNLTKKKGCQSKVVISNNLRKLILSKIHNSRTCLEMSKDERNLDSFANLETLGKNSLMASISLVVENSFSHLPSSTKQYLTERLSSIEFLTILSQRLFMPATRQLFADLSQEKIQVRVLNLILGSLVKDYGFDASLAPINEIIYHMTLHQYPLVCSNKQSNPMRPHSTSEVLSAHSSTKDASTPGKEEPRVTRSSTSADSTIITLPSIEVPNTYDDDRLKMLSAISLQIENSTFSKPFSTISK
# PROTOCOL DESCRIPTION: PBM E-score (8-mer binding enrichment) (E-score (-0.5 to 0.5)); higher = stronger / more preferred TF binding
# MEASUREMENT CONTEXT: protein concentration: 200 nM; construct: GST-full length
In all, about 33,000 sequences were measured (“E-score (-0.5 to 0.5)”: median about -0.036, highest 2% from about 0.37 on). The sample holds the highest values, similar sequences and a random draw of the others, so the mix is not that of the screen.
Assign 1 (yes) whenever PBM E-score does not fall below 0.2; assign 0 (no) whenever it does.

Reference set (2 entries):
| PRIMARY SEQUENCE | CLASSIFICATION |
| --- | --- |
| AATGATTA | 1 (yes) |
| AATGATAA | 0 (no) |

Is PBM E-score for CTTTCCCC at or above 0.2?
0 (no)

Now the sequence GTTGATTA
1 (yes)

Likewise for CTTGATTA ?
1 (yes)

Proceed to GACTCCAA
1 (yes)

Note, next up: GATTATGC
0 (no)

Check AATCAGTG too.
1 (yes)

Same read-out for GATTATGA ?
1 (yes)

Same question, AACTCCAC this time
0 (no)

Subsequent entry: CGTCAGTC
1 (yes)

Try the sequence AGTCAGTG
1 (yes)

----------
# TEST TARGET: Yer064c (UniProt P40041)
# Sequence: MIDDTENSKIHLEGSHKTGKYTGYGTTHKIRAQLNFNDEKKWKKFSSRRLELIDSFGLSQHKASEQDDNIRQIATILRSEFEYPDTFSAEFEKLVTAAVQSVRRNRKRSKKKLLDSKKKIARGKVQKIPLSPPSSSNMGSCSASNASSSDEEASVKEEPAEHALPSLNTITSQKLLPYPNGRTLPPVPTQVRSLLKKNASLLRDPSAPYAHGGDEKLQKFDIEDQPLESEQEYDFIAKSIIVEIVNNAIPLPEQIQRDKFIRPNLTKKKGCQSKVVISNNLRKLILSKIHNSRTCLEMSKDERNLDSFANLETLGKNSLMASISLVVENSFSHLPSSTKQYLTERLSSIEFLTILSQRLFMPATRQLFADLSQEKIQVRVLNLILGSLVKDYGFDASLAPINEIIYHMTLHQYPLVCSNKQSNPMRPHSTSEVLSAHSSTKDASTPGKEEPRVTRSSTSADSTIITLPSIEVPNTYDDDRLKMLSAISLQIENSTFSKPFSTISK
# PROTOCOL DESCRIPTION: PBM E-score (8-mer binding enrichment) (E-score (-0.5 to 0.5)); higher = stronger / more preferred TF binding
# MEASUREMENT CONTEXT: protein concentration: 200 nM; construct: GST-full length
Whole data set: some 33,000 sequences, median “E-score (-0.5 to 0.5)” near -0.036, cut for the highest 2% near 0.37. What follows is part of a selection rich in the highest values, with near analogues and random picks from the rest.
The threshold is inclusive: PBM E-score of exactly 0.2 counts as 1; values below receive 0.

| PRIMARY SEQUENCE | CLASSIFICATION |
| --- | --- |
| CAGTCAAA | 1 |
| AGTAATCG | 0 |
| ACGAATCC | 0 |
| TGTCAACA | 0 |

Check if PBM E-score >= 0.2 (inclusive). Item: ACGAATCA
1

Same again, this time with AAGTCAAC
1

Also need TACTCACA , thanks.
1

// repeat for AACTCACA and report
1

Could you do the same for TAGTCAAA , please?
1

Thanks! And ACCCATCT ?
0

Similarly, CTAGGTAC ?
0

Would you mind doing ACCGGCGG as well?
0

Follow-up entry: AGTAATCA
1

----------
# TEST TARGET: Yer064c (UniProt P40041)
# Sequence: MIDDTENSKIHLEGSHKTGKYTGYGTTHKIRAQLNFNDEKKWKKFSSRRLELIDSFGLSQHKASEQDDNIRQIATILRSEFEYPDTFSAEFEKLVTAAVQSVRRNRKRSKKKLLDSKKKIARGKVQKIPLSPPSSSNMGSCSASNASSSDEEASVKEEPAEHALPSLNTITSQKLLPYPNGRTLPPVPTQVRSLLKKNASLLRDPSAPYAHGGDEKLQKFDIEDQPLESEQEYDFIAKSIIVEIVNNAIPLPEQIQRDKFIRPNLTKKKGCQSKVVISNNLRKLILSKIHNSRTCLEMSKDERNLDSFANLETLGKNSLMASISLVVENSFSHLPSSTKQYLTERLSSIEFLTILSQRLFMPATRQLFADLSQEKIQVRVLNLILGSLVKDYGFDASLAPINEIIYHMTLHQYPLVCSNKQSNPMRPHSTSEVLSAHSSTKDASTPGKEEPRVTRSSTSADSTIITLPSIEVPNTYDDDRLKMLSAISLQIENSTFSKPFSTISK
# PROTOCOL DESCRIPTION: PBM E-score (8-mer binding enrichment) (E-score (-0.5 to 0.5)); higher = stronger / more preferred TF binding
# MEASUREMENT CONTEXT: protein concentration: 200 nM; construct: GST-full length
Over roughly 33,000 sequences, “E-score (-0.5 to 0.5)” has its median near -0.036; the highest 2% begin near 0.37. The list comes from a sample in which the highest values are over-represented; it also holds close analogues and randomly drawn sequences.
PROPERTY: PBM E-score

Could I get PBM E-score for every one of these entries?
1. CGGACTCA
2. AGGACTCA
3. ATCCGTTG
4. GGGACTCA

0.411
0.468
-0.037
0.405
